Values compiled from patent US20240043404A1.

# Test system: RS4;11 cells
# test: RS4;11 cell viability assay (CellTiter Glo)
# Type: cell-based, human
# run-conditions: Homo sapiens, RS4-11, 48 h, 50,000 cells per well, 10% human serum, 48 hours; read-out: RS4; 11 EC50 Values
pEC50: −log10 of the molar value.
reported-property: pEC50

Example compounds with recorded pEC50:
- compound: "CC1(C)CCC(CN2CCN(c3ccc(C(=O)NS(=O)(=O)c4ccc(NC[C@@H]5CC[C@H](O)C5)c([N+](=O)[O-])c4)c(Oc4cnc5[nH]ccc5c4)c3)CC2)=C(c2ccc(Cl)cc2)C1 [Example 159]"
  pEC50: 7.93
- compound: "CC1(C)CCC(CN2CCN(c3ccc(C(=O)NS(=O)(=O)c4ccc(OCC5(F)CCOCC5)c(Cl)c4)c(Oc4cnc5[nH]ccc5c4)c3)CC2)=C(c2ccc(Cl)cc2)C1 [Example 286]"
  pEC50: 7.46
- compound: "CC(=O)N[C@H]1CC[C@H](Nc2ccc(S(=O)(=O)NC(=O)c3ccc(N4CCN(CC5=C(c6ccc(Cl)cc6)CC(C)(C)CC5)CC4)cc3Oc3cnc4[nH]ccc4c3)cc2[N+](=O)[O-])CC1 [Example 179]"
  pEC50: 7.37

P: CC1(C)CCC(CN2CCN(c3ccc(C(=O)NS(=O)(=O)c4ccc(NCC5COCCO5)c([N+](=O)[O-])c4)c(Oc4cnc5[nH]ccc5c4)c3)CC2)=C(c2ccc(Cl)cc2)C1 (stereo not shown) [Example 25]
Q: CC1(C)CCC(CN2CCN(c3ccc(C(=O)NS(=O)(=O)c4ccc(NC5CCC(N6CCC(F)(F)C6)CC5)c([N+](=O)[O-])c4)c(Oc4cnc5[nH]ccc5c4)c3)CC2)=C(c2ccc(Cl)cc2)C1 (stereo not shown) [Example 346]
Prompt: Higher pEC50: P or Q ? Please identify the chosen entry by its label.
Completion: P

a: CC1(C)CCC(CN2CCN(c3ccc(C(=O)NS(=O)(=O)c4ccc(NCc5cccc(O)c5)c([N+](=O)[O-])c4)c(Oc4cnc5[nH]ccc5c4)c3)CC2)=C(c2ccc(Cl)cc2)C1 [Example 186]
b: CC1(C)CCC(CN2CCN(c3ccc(C(=O)NS(=O)(=O)c4ccc(NCC5CCN(C6COC6)CC5)c([N+](=O)[O-])c4)c(Oc4cnc5[nH]ccc5c4)c3)CC2)=C(c2ccc(Cl)cc2)C1 [Example 163]
c: CC1(C)CCC(CN2CCN(c3ccc(C(=O)NS(=O)(=O)c4cc(F)c(NCC5CCOCC5)cc4Cl)c(Oc4cnc5[nH]ccc5c4)c3)CC2)=C(c2ccc(Cl)cc2)C1 [Example 54]
Prompt: Sort ascending by pEC50. Labels, requested order.
Completion: c, a, b

----------
# System: RS4;11 cells
# test: RS4;11 cell viability assay (CellTiter Glo);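 note: acute lymphoblastic leukemia line RS4,11, EC50 derived from percentage of viable cells after treatment relative to untreated controls, cell killing taken as a measure of Bcl-2 inhibition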
# Format: cell-based, human
# run-conditions: Homo sapiens, RS4-11, 48 h, 50,000 cells per well, 10% human serum, 48 hours; read-out: RS4; 11 EC50 Values
pEC50: −log10 of the molar value.
reported-property: pEC50

P: CC1(C)CCC(CN2CCN(c3ccc(C(=O)NS(=O)(=O)c4cnc(O[C@H]5CC[C@H](N6CCOCC6)CC5)c(Br)c4)c(Oc4cnc5[nH]ccc5c4)c3)CC2)=C(c2ccc(Cl)cc2)C1
Q: CC1(C)CCC(CN2CCN(c3ccc(C(=O)NS(=O)(=O)c4cnc(OC[C@H]5CN(CC#N)CCO5)c(Cl)c4)c(Oc4cnc5[nH]ccc5c4)c3)CC2)=C(c2ccc(Cl)cc2)C1
Prompt: For the pair P and Q , which member has the lower pEC50 number? Lab note: record the label of whichever item you select.
Completion: Q
(Q: 6.40, P: 6.67)
